test.conditions: in water, 333.15 K
measured.attribute: solubility (mole fraction)

A: CCCCCC1CCC(=O)O1 (configuration not stated)
B: OCCc1ccccc1
Returns: the argument ( A or B ) having the larger solubility (mole fraction). Your answer should be the label attached to the chosen record. B
